Study the reported IC50 values for human LTA4 hydrolase (Homo sapiens) given below; they originate from different publications.
yes (1) if IC50 is below 0.8 nM. no (0) if not; exact matches included in no (0).

Consider the following illustrative entries.
| CHEMICAL SMILES | LABEL CLASS |
| --- | --- |
| CN(C(=O)CO)[C@@H]1CCN(Cc2coc3cc(Oc4ccc(-c5ccn[nH]5)cn4)ccc23)C1 | yes (1) |
| CN(C)C(=O)C1CCN(Cc2cnc3cc(Oc4ccc(-c5ccn[nH]5)cn4)ccc3c2)CC1 | no (0) |
| CCC(=O)N1CCN(Cc2ccc3cc(Oc4ccc(-c5ccn[nH]5)cn4)ccc3n2)CC1 | yes (1) |
| O=C1N[C@@H](COc2ccc(Cc3ccc(-c4ccn[nH]4)cc3)cc2)CO1 | yes (1) |
| OC1CC2(C1)CN(Cc1ccc3cc(Oc4ccc(-c5ccn[nH]5)cn4)ccc3c1)C2 | yes (1) |

Asked: Does the reported IC50 of CC(C)(O)CC(=O)N1CCN(Cc2ccc3cc(Oc4ccc(-c5ccn[nH]5)cn4)ccc3n2)CC1 stay below 0.8 nM?
Given back: no (0)

Asked: I'd appreciate it if you could check whether CCN(C)CCn1cc2cc(Oc3ccc(-c4ccn[nH]4)cc3)ccc2n1 has IC50 smaller than 0.8 nM.
Given back: yes (1)

Asked: Bench note: check whether CN(Cc1nc2cc(Oc3ccc(-c4ccn[nH]4)cc3)ccc2[nH]1)[C@H]1CCOC1 shows IC50 below 0.8 nM
Given back: yes (1)

Asked: Report whether reported IC50 is lower than 0.8 nM (strictly) for CC(=O)N[C@@H]1CCN(CCn2cc3cc(Oc4ccc(-c5ccn[nH]5)cc4)ccc3n2)C1
Given back: yes (1)

Asked: Quick check: does CC[C@H](C)N(C)Cc1nc2cc(Oc3ccc(-c4ccn[nH]4)cc3)ccc2[nH]1 have IC50 under 0.8 nM?
Given back: yes (1)

Asked: State whether 0.8 nM exceeds IC50 recorded for c1cc(-c2ccc(Oc3ccc(OC4CCOCC4)cc3)cc2)[nH]n1 .
Given back: no (0)
